# targetOrSystem: T1, human IFNAR1 ECD (human, UniProt P17181 28-436)
# T1 construct: extracellular domain; Coated on ELISA plates at 5 ug/ml
# T1 sequence (looked up): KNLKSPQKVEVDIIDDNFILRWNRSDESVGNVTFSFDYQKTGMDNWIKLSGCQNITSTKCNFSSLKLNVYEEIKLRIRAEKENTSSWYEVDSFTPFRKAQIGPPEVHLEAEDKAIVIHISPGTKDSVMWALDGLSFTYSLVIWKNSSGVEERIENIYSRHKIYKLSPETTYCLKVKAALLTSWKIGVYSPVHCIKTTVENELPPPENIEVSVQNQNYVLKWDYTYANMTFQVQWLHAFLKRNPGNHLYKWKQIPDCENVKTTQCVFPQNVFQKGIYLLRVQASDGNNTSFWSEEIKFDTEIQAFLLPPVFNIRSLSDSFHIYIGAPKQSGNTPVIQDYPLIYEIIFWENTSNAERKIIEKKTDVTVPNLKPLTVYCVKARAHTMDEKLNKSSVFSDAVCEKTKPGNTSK
# runDescription: ELISA, plate coated with human IFNAR1 ECD, anti-human IgG Fc-peroxidase, OD450
Each entry below carries its reported Top.

binder	Top
Hu4-13 (antibody, V domains shown, Humanized 7G4 variant) VH: QVQLVQSGAEVKKPGASVKVSCKASGYTFTSYWMNWVRQAPGQGLEWMGKIDPSDSETHFNQKFRDRVTMTRDTSTSTVYMELSSLRSEDTAVYYCARGGRISFDYDAALDYWGQGTLVTVSS VL: DIQMTQSPSSLSASVGDRVTITCKSSEVIYNRLAWYQQKPGNAPKLLISGATTLESGVPSRFSGSGSGKDYTLTISSLQPEDFATYYCQQYWNKPFTFGQGTKLEIK	3.4 OD450
Hu4-6 (antibody, V domains shown, Humanized 7G4 variant) VH: QVQLVQSGAEVKKPGASVKVSCKASGYTFTSYWMNWVRQAPGQGLEWMGKIDPSDSETHFNQKFRDRVTLTVDKSTSTVYMELSSLRSEDTAVYYCARGGRISFDYDAALDYWGQGTLVTVSS VL: DIQMTQSPSSLSASVGDRVTITCKSSEVIYNRLAWYQQKPGKAPKLLIYGATTLESGVPSRFSGSGSGKDYTLTISSLQPEDFATYYCQQYWNKPFTFGQGTKLEIK	3.35 OD450
Hu4-15 (antibody, V domains shown, Humanized 7G4 variant) VH: QVQLVQSGAEVKKPGASVKVSCKASGYTFTSYWMNWVRQAPGQGLEWIGKIDPSDSETHFNQKFRDRVTLTVDKSTSTVYMELSSLRSEDTAVYYCARGGRISFDYDAALDYWGQGTLVTVSS VL: DIQMTQSPSSLSASVGDRVTITCKSSEVIYNRLAWYQQKPGNAPKLLISGATTLESGVPSRFSGSGSGKDYTLTISSLQPEDFATYYCQQYWNKPFTFGQGTKLEIK	3.46 OD450
